assay: Antiradical activity, acellular DPPH model; conditions: DPPH 30 minutes, absorbance 520 nm
MEASURE: Antiradical activity, Mean 10^−5 M (%)
I only need the number, in %, no unit after it.

Query: Antiradical activity, Mean 10^−5 M; subject: COc1ccc(CCNC(=O)/C=C/c2ccc(O)c(O)c2)cc1OC [Example 12, N-trans-caffeoyl-3,4-dimethoxydopamine]
44.51

// same read-out, input: `COc1cc(CNC(=O)/C=C/c2ccc(O)c(O)c2)ccc1O`
59.2

Moving on to COc1cc(/C=C/C(=O)NCCc2ccc(O)cc2)ccc1O [Example 3, N-trans-feruloyltyramine]
13.73

Also check COc1cc(/C=C/C(=O)NCCc2ccc(O)c(O)c2)ccc1O [Example 1, N-trans-feruloyldopamine]
60.01

Would you mind doing O=C(/C=C/c1ccc(O)c(O)c1)NCCc1ccc(O)cc1 [Example 9, N-trans-caffeoyltyramine] as well?
41.17

Next entry: O=C(/C=C/c1ccc(O)c(O)c1)NCCc1ccc(O)c(O)c1 [Example 10, N-trans-caffeoyldopamine]
57.45

Try this compound too: `COc1cc(/C=C/C(=O)NCc2ccc(O)c(OC)c2)ccc1O`
15.72

Let us now turn to COc1cc(/C=C/C(=O)NCCc2ccc(OC)c(OC)c2)ccc1O [Example 2, N-trans-feruloyl-3,4-dimethoxydopamine]
20.16

----------
molecular target: Human tyrosinase (Homo sapiens, UniProt P14679); construct: endogenous in cells; host or cells: normal human melanocytes (abdominal surgery; several donors of fair, brown and black phototypes); experiment: In vitro test of inhibition of human tyrosinase from melanocyte extracts (L-dopa/MBTH, OD 490 nm); assay type: biochemical; details: 10^−4M, melanocyte extract, read-out: Inhibition of human tyrosinase, percentage of inhibition, Mean 10^−4M
Sequence (P14679 19-529): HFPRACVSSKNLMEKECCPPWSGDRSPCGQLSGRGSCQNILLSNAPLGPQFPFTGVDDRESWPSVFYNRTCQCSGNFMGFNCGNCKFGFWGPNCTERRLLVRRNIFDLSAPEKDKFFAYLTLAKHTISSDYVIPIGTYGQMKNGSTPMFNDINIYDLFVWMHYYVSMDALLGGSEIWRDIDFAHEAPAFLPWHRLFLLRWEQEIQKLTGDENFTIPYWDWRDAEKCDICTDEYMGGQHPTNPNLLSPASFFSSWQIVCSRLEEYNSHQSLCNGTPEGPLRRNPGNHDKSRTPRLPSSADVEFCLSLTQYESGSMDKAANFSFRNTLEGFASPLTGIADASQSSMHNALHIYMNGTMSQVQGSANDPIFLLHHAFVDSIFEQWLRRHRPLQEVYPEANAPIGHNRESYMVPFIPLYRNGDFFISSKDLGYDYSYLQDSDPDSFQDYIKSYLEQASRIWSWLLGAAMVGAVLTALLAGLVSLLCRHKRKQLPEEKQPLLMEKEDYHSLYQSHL
MEASURE: inhibition at 100 µM (%)
Hi! Could you send only the number? It should be in %, unit omitted.

# lookup: inhibition at 100 µM of COc1cc(/C=C/C(=O)NCCc2ccc(OC)c(OC)c2)ccc1O [Example 2, N-trans-feruloyl-3,4-dimethoxydopamine]
0.94

Cool, now O=C(/C=C/c1ccc(O)c(O)c1)NCCc1ccc(O)c(O)c1 [Example 10, N-trans-caffeoyldopamine]
9.91

Also COc1cc(CNC(=O)/C=C/c2ccc(O)c(O)c2)ccc1O [Example 11] , if possible.
0

Another molecule: O=C(/C=C/c1ccc(O)c(O)c1)NCCc1ccc(O)cc1 [Example 9, N-trans-caffeoyltyramine]
22.1

Further, for COc1ccc(CCNC(=O)/C=C/c2ccc(O)c(O)c2)cc1OC [Example 12, N-trans-caffeoyl-3,4-dimethoxydopamine] ?
6.53

Then what about the molecule COc1cc(/C=C/C(=O)NCCc2ccc(O)c(O)c2)ccc1O [Example 1, N-trans-feruloyldopamine] ?
0

Next: COc1cc(/C=C/C(=O)NCCc2ccc(O)cc2)ccc1O [Example 3, N-trans-feruloyltyramine]
0

Do the same for COc1cc(/C=C/C(=O)NCc2ccc(O)c(OC)c2)ccc1O [Example 4] please
6.42

----------
tested on: normal human melanocytes; experiment: Cytotoxicity on normal human melanocytes, PNPP assay; assay type: cell-based; conditions: 10^−5 M; 24 hours; relative to untreated wells
For each entry below, report its Percentages of viability, Mean 10^−5 M value.
Please provide the amount together with its unit, number first.

Return reported Percentages of viability, Mean 10^−5 M; argument: O=C(/C=C/c1ccc(O)c(O)c1)NCCc1ccc(O)cc1 [Example 9, N-trans-caffeoyltyramine]
94.96%

Can you handle COc1cc(CNC(=O)/C=C/c2ccc(O)c(O)c2)ccc1O [Example 11] next?
116.99%

Another compound: COc1cc(/C=C/C(=O)NCCc2ccc(O)c(O)c2)ccc1O [Example 1, N-trans-feruloyldopamine]
119.83%

Here is the next compound: COc1cc(/C=C/C(=O)NCCc2ccc(O)cc2)ccc1O [Example 3, N-trans-feruloyltyramine]
111.54%

Same again, this time with COc1ccc(CCNC(=O)/C=C/c2ccc(O)c(O)c2)cc1OC [Example 12, N-trans-caffeoyl-3,4-dimethoxydopamine]
109.84%

Again, but for COc1cc(/C=C/C(=O)NCc2ccc(O)c(OC)c2)ccc1O [Example 4]
99.55%

Please give the result for O=C(/C=C/c1ccc(O)c(O)c1)NCCc1ccc(O)c(O)c1 [Example 10, N-trans-caffeoyldopamine] too.
102.1%

Can you handle COc1cc(/C=C/C(=O)NCCc2ccc(OC)c(OC)c2)ccc1O [Example 2, N-trans-feruloyl-3,4-dimethoxydopamine] next?
114.6%

FYI, the data here is from patent US9089499B2.
